The measurements presented in this section are drawn from the supplement of paper PMC9233669.

Catalogue of self-aminoacylation values
Tested on: biotinyl-Trp-oxazolone
assay.method.text: self-aminoacylation, catalytic enhancement (BWO) (fold over background); higher = more active; k-Seq, kA / k0A0; sequences stand for … in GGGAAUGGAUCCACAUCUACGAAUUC…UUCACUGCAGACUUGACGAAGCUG
Fewer inactive variants are shown than the library holds.
# output: bare number, no unit

These solved cases illustrate the format of a correct answer.
biopolymer.sequence	assayed.target	self-aminoacylation
CUUCACCUAGGUCAUCGGGUA [Fam2.2 aminoacylation ribozyme variant]	biotinyl-Trp-oxazolone	5.72
AUUCACCUAGGUCACCCGGUG [Fam2.2 aminoacylation ribozyme variant]	biotinyl-Trp-oxazolone	5.82

Recorded self-aminoacylation for AUUCACCUAGGUCAUAGGGUA [Fam2.2 aminoacylation ribozyme variant] with biotinyl-Trp-oxazolone, please?
1.67

Hi! What's the reported self-aminoacylation for AUUACCUUGGUCAGCGAGUGA [Fam2.1 aminoacylation ribozyme variant] on biotinyl-Trp-oxazolone?
6.84

Value wanted: self-aminoacylation (biotinyl-Trp-oxazolone) of entry AUUCACCGAGGGCAUCGGGUG [Fam2.2 aminoacylation ribozyme variant]
7.83

Hi! What's the reported self-aminoacylation for CCACUUCAAACAAUCGUUCUG [Fam1A.1 aminoacylation ribozyme variant] on biotinyl-Trp-oxazolone?
1.09

GET /values?readout=self-aminoacylation&system=biotinyl-Trp-oxazolone&item= AUAACCCUGAUCAUCGAGUGA [Fam2.1 aminoacylation ribozyme variant]
8.47

Tell me reported self-aminoacylation for AUUCUCCUAGAUCAUCGGGUG [Fam2.2 aminoacylation ribozyme variant] , tested with biotinyl-Trp-oxazolone.
4.66

Write down the reported self-aminoacylation of AAGUGUGCUAAUGGUCGCAAG [Fam3.1 aminoacylation ribozyme variant] , test system: biotinyl-Trp-oxazolone.
1.21

* * *

Test system: biotinyl-Leu-oxazolone
assay.method.text: self-aminoacylation, catalytic enhancement (BLO) (fold over background); higher = more active; k-Seq, kA / k0A0; sequences stand for … in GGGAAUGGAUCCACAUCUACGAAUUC…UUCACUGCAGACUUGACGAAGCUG
This sample holds only a part of the variants without activity.
// values below are reported self-aminoacylation
API doc: respond with a numeric literal and nothing else, no unit.

biopolymer.sequence	self-aminoacylation
CAACACUACAAGCAAUCGGUC [Fam1B.1 aminoacylation ribozyme variant]	0.914
CUACUUCAAACGAUCGGCCUG [Fam1A.1 aminoacylation ribozyme variant]	1.96
CCACUCGUCAAGCAAUCGGUC [Fam1B.1 aminoacylation ribozyme variant]	1.35

We next turn to a different sequence, shown below.
Give the reported self-aminoacylation for CCACGCUACAAGCAAUCGGUC [Fam1B.1 aminoacylation ribozyme variant] (system: biotinyl-Leu-oxazolone).
0.851

* * *

Tested on: biotinyl-Trp-oxazolone
assay.method.text: self-aminoacylation, catalytic enhancement (BWO) (fold over background); higher = more active; k-Seq, kA / k0A0; sequences stand for … in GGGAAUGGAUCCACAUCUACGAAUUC…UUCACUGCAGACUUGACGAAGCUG
Variants at the floor of the assay were thinned out.
self-aminoacylation values, listed per item
// return a plain number; no unit text

Some sequences with known self-aminoacylation results, for comparison:
biopolymer.sequence	observed.measurement
AUGACCCUGGUCAUCGAGUAA [Fam2.1 aminoacylation ribozyme variant]	8.31
AUUCACCUUGGUCAUAGGGUG [Fam2.2 aminoacylation ribozyme variant]	1.05
CCACUCUUCAACCAAUCGGUC [Fam1B.1 aminoacylation ribozyme variant]	27
CAAUACUUCAAGCAAUCGGUC [Fam1B.1 aminoacylation ribozyme variant]	5.14
AUUCCCCUGGUGAUCGAGUGA [Fam2.1 aminoacylation ribozyme variant]	6.06

Find the recorded self-aminoacylation belonging to AUUACCCUAGUCCUCGAGUGA [Fam2.1 aminoacylation ribozyme variant] and report it.
4.08

Can you share its self-aminoacylation? I mean this sequence: AUUACCCUGGUAUUCGAGUGA [Fam2.1 aminoacylation ribozyme variant]
9.54

Field request: self-aminoacylation | item: CCACACUUCAAGCAAUUGGUC [Fam1B.1 aminoacylation ribozyme variant]
0.858

Dear colleague, I am looking for the recorded self-aminoacylation of the following sequence: AUUACCCUGGUCAGCGGGUGA [Fam2.1 aminoacylation ribozyme variant]
10.1
